System: PPARg DBDmut:RXRa IVT, anti-PPARg (DBD mutation: PPARg1 K132A/R137A, NR concentration 270 nM, RXRa partner concentration 90 nM)
Test: PBM binding z-score (relative to random genomic background probes); higher = stronger binding; sequences stand for … in GC…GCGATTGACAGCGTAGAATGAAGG
Short version: PBM binding z-score at least 0.2 is Met, less is Not met.

// known answers, use as guide
# monomerSequence, group
measured = [
    ("AGAACGAAGGCACGCTGAGTTGATAGCAGAGTAG", "Not met"),
    ("CAAACTAGGTCACAAAGGTCAAAGTCCGTGCGTA", "Met"),
    ("TTACCCAGGTGAAGGTCGTTGATCCCTCTGTAGA", "Not met"),
    ("TAGCCTAGGTTATTGGGCCAGTATAGTACGCATC", "Not met"),
    ("GATACAGGGTCAGCTAGAGGCCAGACTATGGAAA", "Not met"),
    ("ATCTCTACGTAACAAGTTCAGTGAAAGAGAGGAC", "Met"),
]

Task: Please indicate if the recorded PBM binding z-score for TGTACAGGGTCAAAGGCCAGAGTACGAATGTCGA meets or exceeds 0.2.
Output: Met

Task: Please indicate if the recorded PBM binding z-score for TCTTATAGATCAAGCAGGTTAAGAAAGCCTGAGT meets or exceeds 0.2.
Output: Met

* * *

System: PPARg:RXRa IVT, anti-PPARg (NR concentration 270 nM, RXRa partner concentration 90 nM)
Assay: PBM binding z-score (relative to random genomic background probes); higher = stronger binding; sequences stand for … in GC…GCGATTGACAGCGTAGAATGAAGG
measurementType: PBM binding z-score

Take a look at these entries with their results.
# monomerSequence, testedSystem, PBM binding z-score
rows = [
    ("TCGAGTAGGTCAGTCGGGGCATTCAGCCAACATA", "PPARg:RXRa IVT, anti-PPARg (NR concentration 270 nM, RXRa partner concentration 90 nM)", 4.74),
    ("AGAATGAGGGTACCAAAGATCAGGGAAACGCTTG", "PPARg:RXRa IVT, anti-PPARg (NR concentration 270 nM, RXRa partner concentration 90 nM)", 1.35),
    ("GCTATTAGTTGCAAGGGCAACCGAATGATTCTCG", "PPARg:RXRa IVT, anti-PPARg (NR concentration 270 nM, RXRa partner concentration 90 nM)", 0.0802),
    ("TCTATTCGTTGAAGGGCAACCGACGAGTCCGTTT", "PPARg:RXRa IVT, anti-PPARg (NR concentration 270 nM, RXRa partner concentration 90 nM)", 0.764),
    ("TAGCGTAGGTCATGCGGGCCAGTATAGTGTCGGC", "PPARg:RXRa IVT, anti-PPARg (NR concentration 270 nM, RXRa partner concentration 90 nM)", 2.08),
    ("CCGACTGGGGCATAACGTTACCATAAGCCAGCCC", "PPARg:RXRa IVT, anti-PPARg (NR concentration 270 nM, RXRa partner concentration 90 nM)", 1.66),
]

Observed PBM binding z-score on PPARg:RXRa IVT, anti-PPARg (NR concentration 270 nM, RXRa partner concentration 90 nM), entry CCTACTGGGCCATTCAGAGGTCAGTGATCATATG , equals 3.89

Observed PBM binding z-score on PPARg:RXRa IVT, anti-PPARg (NR concentration 270 nM, RXRa partner concentration 90 nM), entry CCTACTGGGCCAAGGTAATTGATCAGTCAAAGCA , equals 3.56

Observed PBM binding z-score on PPARg:RXRa IVT, anti-PPARg (NR concentration 270 nM, RXRa partner concentration 90 nM), entry GCGACTGGGGCAAAGCAGGGTACCATAAGGTTGG , equals 3.24

Observed PBM binding z-score on PPARg:RXRa IVT, anti-PPARg (NR concentration 270 nM, RXRa partner concentration 90 nM), entry CCTTACGGGTCACTCCAGGTTATACCATCGGAGT , equals 3.61

Observed PBM binding z-score on PPARg:RXRa IVT, anti-PPARg (NR concentration 270 nM, RXRa partner concentration 90 nM), entry TCATATATGTAAAGGTGAAAGTCGAACGATATGA , equals 1.99

Observed PBM binding z-score on PPARg:RXRa IVT, anti-PPARg (NR concentration 270 nM, RXRa partner concentration 90 nM), entry TAAATGAGGTTATAAGATCAGGGAACGTTGCAAA , equals 2.73
